Target: cystic fibrosis transmembrane conductance regulator (CFTR) (Homo sapiens, UniProt P13569)
Construct: wild-type human CFTR stably expressed in FRT cells
Sequence (P13569 whole entry): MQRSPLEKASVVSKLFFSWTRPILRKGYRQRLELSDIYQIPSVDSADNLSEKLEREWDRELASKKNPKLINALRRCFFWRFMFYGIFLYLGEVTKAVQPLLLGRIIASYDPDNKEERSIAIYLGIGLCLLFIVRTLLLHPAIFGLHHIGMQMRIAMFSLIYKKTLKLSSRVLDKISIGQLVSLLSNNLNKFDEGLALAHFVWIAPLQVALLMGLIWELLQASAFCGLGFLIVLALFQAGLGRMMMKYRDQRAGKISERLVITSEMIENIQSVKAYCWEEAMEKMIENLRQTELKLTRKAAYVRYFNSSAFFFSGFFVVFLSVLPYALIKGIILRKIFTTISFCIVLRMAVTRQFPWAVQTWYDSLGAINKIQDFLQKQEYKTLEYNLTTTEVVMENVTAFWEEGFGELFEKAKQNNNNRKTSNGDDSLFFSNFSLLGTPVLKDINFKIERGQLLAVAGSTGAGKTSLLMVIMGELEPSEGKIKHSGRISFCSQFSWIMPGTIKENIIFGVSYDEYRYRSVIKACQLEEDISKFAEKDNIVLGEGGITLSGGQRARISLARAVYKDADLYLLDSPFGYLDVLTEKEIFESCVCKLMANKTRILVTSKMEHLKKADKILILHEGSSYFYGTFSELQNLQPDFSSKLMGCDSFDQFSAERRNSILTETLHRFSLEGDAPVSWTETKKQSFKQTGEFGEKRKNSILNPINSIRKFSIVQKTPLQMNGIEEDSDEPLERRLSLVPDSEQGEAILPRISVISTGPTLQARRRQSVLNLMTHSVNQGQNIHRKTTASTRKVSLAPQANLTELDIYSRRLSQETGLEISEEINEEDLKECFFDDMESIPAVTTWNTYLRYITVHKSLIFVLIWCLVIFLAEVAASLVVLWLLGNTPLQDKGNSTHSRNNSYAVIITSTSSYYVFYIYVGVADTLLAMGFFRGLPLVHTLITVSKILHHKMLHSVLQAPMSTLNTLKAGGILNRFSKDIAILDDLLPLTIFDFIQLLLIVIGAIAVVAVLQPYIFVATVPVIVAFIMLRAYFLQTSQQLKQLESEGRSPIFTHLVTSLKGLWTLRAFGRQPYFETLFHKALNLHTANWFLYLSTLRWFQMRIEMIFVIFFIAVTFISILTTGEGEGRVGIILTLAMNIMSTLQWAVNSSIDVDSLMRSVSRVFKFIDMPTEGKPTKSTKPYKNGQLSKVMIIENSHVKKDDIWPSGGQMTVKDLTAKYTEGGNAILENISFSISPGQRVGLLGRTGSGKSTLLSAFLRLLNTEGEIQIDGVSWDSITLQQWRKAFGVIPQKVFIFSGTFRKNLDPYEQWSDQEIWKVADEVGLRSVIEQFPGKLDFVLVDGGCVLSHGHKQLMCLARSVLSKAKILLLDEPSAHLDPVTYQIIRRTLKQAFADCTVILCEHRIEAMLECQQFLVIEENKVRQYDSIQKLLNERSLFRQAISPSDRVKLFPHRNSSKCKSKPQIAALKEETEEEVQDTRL
Assay: EYFP-H148Q iodide influx assay in FRT cells; excised inside-out patch-clamp ([…], reversible)
Type: cell-based
property: IC50

Hi! What's the reported IC50 for Oc1ccc(/C=C/c2cc(O)cc3c2[C@H](c2cc(O)cc(O)c2)[C@@H](c2ccc(O)cc2)O3)cc1 [TV, trans-ε-viniferin] on cystic fibrosis transmembrane conductance regulator (CFTR) (Homo sapiens, UniProt P13569)?
~20 µM
